In this section we review reported kinact/KI values for a set of compounds.
- system name: human leukocyte elastase (Homo sapiens, UniProt P08246)
- procedure details: Inactivation kinetics of human leukocyte elastase (chromogenic substrate MeOSuc-Ala2-Pro-Val-pNA)
- Assay type: biochemical
- test settings: TABLE 5, phenyl esters; 25° C., pH 8.0; inactivation phase; N.I. = non-inactivator; read-out: Ki/KI or kobs/[I], HLE
- Description: The inactivating or inhibitory properties of the coumarin derivatives were tested with respect to a certain number of enzymes: human leukocyte elastase, bovine α-chymotrypsin, human thrombin and bovine trypsin. […]

Observe how each entry below is paired with its result.
O=C(Oc1c(Cl)cccc1Cl)c1cc2cc(CCl)ccc2oc1=O | < 200 M⁻¹ s⁻¹
O=C(Oc1cccc(C(F)(F)F)c1)c1cc2cc(CCl)ccc2oc1=O | 330 M⁻¹ s⁻¹
Cc1ccc2oc(=O)c(C(=O)Oc3cccc(Cl)c3)cc2c1 | 1100 M⁻¹ s⁻¹
O=C(Sc1cccc(Cl)c1)c1cc2cc(CCl)ccc2oc1=O | < 200 M⁻¹ s⁻¹

Query block: Give kinact/KI (human leukocyte elastase (Homo sapiens, UniProt P08246)) of the following compound: "Cc1ccc2oc(=O)c(C(=O)Oc3cc(Cl)ccc3Cl)cc2c1"
Result block: 3000 M⁻¹ s⁻¹

---

In this section we review reported kinact/KI values for a set of molecules.
- system name: human leukocyte elastase (Homo sapiens, UniProt P08246)
- Sequence (P08246 30-247 limits assumed): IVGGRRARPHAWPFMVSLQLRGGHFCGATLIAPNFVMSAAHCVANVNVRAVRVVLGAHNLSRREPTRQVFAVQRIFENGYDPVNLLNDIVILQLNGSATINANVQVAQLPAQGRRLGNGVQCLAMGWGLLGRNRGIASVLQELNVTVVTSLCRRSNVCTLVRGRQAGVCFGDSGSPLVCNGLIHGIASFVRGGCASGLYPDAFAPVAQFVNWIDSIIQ
- procedure details: Inactivation kinetics of human leukocyte elastase (chromogenic substrate MeOSuc-Ala2-Pro-Val-pNA)
- Format: biochemical
- test settings: TABLE 5, phenyl esters; 25° C., pH 8.0; inactivation phase; N.I. = non-inactivator; read-out: Ki/KI or kobs/[I], HLE
The answer is to be given in M⁻¹ s⁻¹; state only the numeric part.

Observe how each entry below is paired with its result.
O=C(Oc1cc(Cl)ccc1Cl)c1cc2ccccc2oc1=O | 5800
CC(=O)OCc1ccc2oc(=O)c(C(=O)Oc3cccc(Cl)c3)cc2c1 | 1440
O=C(Oc1ccccc1[N+](=O)[O-])c1cc2cc(CCl)ccc2oc1=O | 1250
O=C(Oc1cc(Cl)cc(Cl)c1)c1cc2cc(CCl)ccc2oc1=O | 4000

Consider the additional molecule presented here.
Query block: Look up kinact/KI for this molecule: "COc1cc(Cl)cc(OC(=O)c2cc3cc(CCl)ccc3oc2=O)c1"
Result block: 350

---

In this section we review reported kinact/KI values for a set of compounds.
- system name: human leukocyte elastase (Homo sapiens, UniProt P08246)
- procedure details: Inactivation kinetics of human leukocyte elastase (chromogenic substrate MeOSuc-Ala2-Pro-Val-pNA)
- Assay type: biochemical
- test settings: TABLE 1, 2-pyridyl esters; 25° C., pH 8.0; inactivation phase of transient inactivation; read-out: Ki/KI or kobs/[I], LHE
The answer is to be given in M⁻¹ s⁻¹; state only the numeric part.

Observe how each entry below is paired with its result.
O=C(Oc1ccc(Cl)cn1)c1cc2cc(CCl)ccc2oc1=O | 110
Cc1cccc(OC(=O)c2cc3cc(CCl)ccc3oc2=O)n1 | 200
Cc1ccnc(OC(=O)c2cc3cc(CCl)ccc3oc2=O)c1 | 300
O=C(Oc1ccccn1)c1cc2cc(CCl)ccc2oc1=O | 420

Query block: Look up kinact/KI for this compound: "O=C(Oc1cccc(Cl)n1)c1cc2cc(CCl)ccc2oc1=O"
Result block: 26000
